From: PubChem BioAssay (NCI)

Test system: COLO 205 colon
Assay Details: NCI tumour cell line growth inhibition, 48 h
Attribute Measured: TGI

                                   molecule  target_of_assay    result
0              CCOC(=O)c1cc(=O)n(C)c(=O)n1C   COLO 205 colon  > 100 µM
1   O=C(c1cscc1CCc1ccccc1)c1cscc1CCc1ccccc1   COLO 205 colon  > 100 µM
2  O=C1c2ccccc2C(=O)N1CCCOCc1c[nH]c(=O)[nH]c1=O   COLO 205 colon  > 100 µM
3  C[N+](C)(C)CC(=O)N/N=C(\Cc1nc2ccc([N+](=O)[O-])cc2[nH]c1=O)C(=O)Nc1nc2ccc([N+](=O)[O-])cc2s1   COLO 205 colon  > 100 µM
4  COc1ccc(Oc2nc3cc(N)cc(N)c3nc2-c2ccccc2)cc1   COLO 205 colon  > 100 µM

Value sought for every listed molecule: TGI.
1. Cc1ccc(N2C(=O)C3c4[nH]c5ccc(C)cc5c4C4CCC(C(C)(C)C)CC4C3C2=O)cc1 (stereo not given)
2. COC(=O)C1C(C(=O)O)C2(c3ccccc3)C(=O)C1(c1ccccc1)C(c1ccccc1)=C2c1ccccc1 (stereo not given)

1. > 100 µM
2. 39.3 µM

Provide the reported TGI of each entry below, same order.
1. COC(=O)[C@]12CC[C@@H](C)[C@H](C)[C@@H]1C1=CC[C@@H]3[C@@]4(C)C(C=O)=C[C@@](C)(CO)[C@@H]4[C@H](O)C[C@@]3(C)[C@]1(C)CC2
2. C/C(=C\COP(=O)(O)OP(=O)(O)O)CCCCCCOCc1ccccc1
3. Cc1ccc(Nc2cccc3c2C(=O)c2cccc(Nc4ccc(C)cc4S(=O)(=O)O)c2C3=O)c(S(=O)(=O)O)c1
4. Cc1cc(C)c(NS(=O)c2cccc(C(F)(F)F)c2)c(C)c1 (stereo not given)
5. CC(=O)OCC1OC(n2cccnc2=O)C(OC(C)=O)C1OC(C)=O (stereo not given)
6. CC(C)c1oc(=O)cc2c1C(O)C1OC(=O)C3(C)C(O)C4OC4C2(C)C13 (stereo not given)
7. O=C=C=P(c1ccccc1)(c1ccccc1)c1ccccc1
8. CC(C)(C)OC(=O)N(O)[C@@H]1CC[C@H](n2cnc3c(N)ncnc32)C1

["4.93 µM", "> 100 µM", "> 100 µM", "> 100 µM", "> 100 µM", "4.18 µM", "75.7 µM", "> 100 µM"]

###

Test system: HCC-2998 colon
Assay Details: NCI tumour cell line growth inhibition, 48 h
Attribute Measured: TGI

Compound	Target Of Assay	TGI
Cn1c(CCCC(=O)O)nc2cc(N(CCCl)CCCl)ccc21	HCC-2998 colon	> 100 µM
C[N+](C)(C)CC(=O)N/N=C(\Cc1nc2ccc([N+](=O)[O-])cc2[nH]c1=O)C(=O)Nc1nc2ccc([N+](=O)[O-])cc2s1	HCC-2998 colon	> 100 µM
COc1ccc(N2C(=O)C(Cl)C2c2cc3cc(Br)ccc3nc2Cl)cc1 (configuration not stated)	HCC-2998 colon	7.52 µM
COc1cccc(NC(=O)CSc2nnc(Cc3ccccc3)o2)c1	HCC-2998 colon	> 100 µM
N#C/C(=C\c1cc(O)c(O)c(O)c1)C(N)=O	HCC-2998 colon	> 100 µM
C=C1c2nc3ccccc3n2C=C(c2ccccc2)N1c1ccc(Cl)cc1	HCC-2998 colon	> 100 µM

For each of the compounds below, note its TGI.
1. O=C1C=C(c2ccccc2)OC1C1Sc2ccccc2NC1=O (configuration not stated)
2. O=c1[nH]c(=O)c2c([nH]1)[nH]c1ccc(Br)cc12

> 31.3 µM
> 100 µM

###

Test system: HT29 colon
Assay Details: NCI tumour cell line growth inhibition, 48 h
Exercise: for every item that follows, state its recorded TGI.

Past entries and their recorded results:
In [3]: df
Out[3]:
                                   compound  attribute_measured    result
0  CN(C)[C@@H]1C(=O)C(C(=O)NCNc2nc3n[nH]nc3c(=O)[nH]2)=C(O)[C@@]2(O)C(=O)C3=C(O)c4c(O)cccc4[C@@](C)(O)[C@H]3C[C@@H]12                 TGI  > 100 µM
1  CCCC(=O)OCC1OC(n2cc(F)c(=O)[nH]c2=O)CC1O (stereo unspecified)                 TGI   > 10 µM
2  CNc1cc([N+](=O)[O-])ccc1C(=O)N1CCC[C@H]1CO                 TGI  > 100 µM
3  COC(=O)C1=CC2C(=O)OC1C1C(=O)NC(=O)C21 (stereo unspecified)                 TGI  > 100 µM
4                         O=Cc1ccc2ccocc1-2                 TGI  > 100 µM
5  COc1ccc2c(c1)C(=Nc1ccc(F)c(Cl)c1)c1c-2c(Nc2ccc(F)c(Cl)c2)nc2ccccc12                 TGI  > 100 µM
6  O=c1[nH]c(=O)c2c([nH]1)[nH]c1ccc(Br)cc12                 TGI  > 100 µM
7  NS(=O)(=O)c1nnc(NS(=O)(=O)c2ccccc2[N+](=O)[O-])s1                 TGI  > 100 µM
8                CN(c1ccccc1)c1cc2ccccc2nn1                 TGI  > 100 µM
9  Cc1ccc(C[As+](c2ccccc2)(c2ccccc2)c2ccccc2)cc1                 TGI   11.5 µM

Would you mind giving TGI for every compound in the list below?
1. CC(=O)OC1CCC2OOC1O2 (stereo unspecified)
2. O=c1[nH]c2c(c(=O)[nH]1)SC(c1ccccc1)C2 (stereo unspecified)
3. CCO/C(O)=C(/C(=N)N1CCOCC1)C(=O)NC(C)C
4. CCCCC(=O)N(c1ccc(Nc2c3ccccc3nc3cc([N+](=O)[O-])ccc23)cc1)S(C)(=O)=O
5. O=C(/C=C/c1ccccc1)c1cccc2ccccc12
6. Clc1sc(Cl)c2c1[C@H](Cl)C[C@@H]2Cl

["> 100 µM", "> 100 µM", "> 100 µM", "60.3 µM", "12.9 µM", "> 100 µM"]

###

Would you mind telling me the reported GI50 of each entry?
System: SNB-75 CNS
Assay Details: NCI tumour cell line growth inhibition, 48 h

Guide cases for GI50, answers given:
                                   compound  attribute_measured     result
0  C=CCn1c2ccccc2c2c3c(c4c5ccccc5n(CC=C)c4c21)C(=O)N(O)C3=O                GI50    3.55 µM
1  Cc1nc2sc(C(=O)Nc3cccc(Br)c3C)c(N)c2cc1C(O)c1ccccc1 (stereo not given)                GI50  0.0279 µM
2  CN1CCC2(CC1)N=C(SCC(=O)Nc1cnc3ccccc3c1)C(c1ccc(Br)cc1)=N2                GI50    2.04 µM
3  CN1CCN(CCCNC(=O)c2c3c(n4ccccc24)C(=O)c2ncccc2C3=O)CC1                GI50    3.92 µM

From here, focus on the item given below.
Requested field: GI50. Item: `Nc1ccccc1C#C/C=C\C#Cc1ccccc1C#CCO` 18 µM

###

Would you kindly list TGI for each of these compounds?
System: CAKI-1 renal
Assay Details: NCI tumour cell line growth inhibition, 48 h

Compound	Result
N#C/C(=C\c1c(O)cc(O)cc1O)C(N)=O	> 100 µM
c1ccc(C2=NN2c2ccccc2)cc1	> 100 µM
C/C(O)=C(\C=N\C(=S)N=Nc1c(O)[nH]c2ccccc12)C(=O)Nc1ccccc1C	> 100 µM

For each of the compounds below, state TGI.
1. C[C@@H](Nc1cc(F)cc(F)c1)c1cc(C(=O)N(C)C)cc2c(=O)cc(N3CCOCC3)oc12
2. CC[C@H](C)[C@@H]([C@@H](CC(=O)N1CCC[C@H]1[C@H](OC)[C@@H](C)C(=O)NCCc1ccccc1)OC)N(C)C(=O)C(NC(=O)[C@H](C(C)C)N(C)C)C(C)C (stereo not given in full)

1: > 100 µM; 2: > 10 µM

###

Test system: NCI/ADR-RES ovarian
Assay Details: NCI tumour cell line growth inhibition, 48 h
Provide the recorded GI50 for the entries that follow.

In [3]: df
Out[3]:
                                 mol_smiles      target_of_assay  attribute_measured    result
0  Cc1ccc(C[As+](c2ccccc2)(c2ccccc2)c2ccccc2)cc1  NCI/ADR-RES ovarian                GI50   49.1 µM
1    Cn1c(CCCC(=O)O)nc2cc(N(CCCl)CCCl)ccc21  NCI/ADR-RES ovarian                GI50   98.2 µM
2  COC(=O)c1c[nH]c2cc(OC(C)C)c(OC(C)C)cc2c1=O  NCI/ADR-RES ovarian                GI50  > 100 µM
3          O=C(/C=C/c1ccccc1)c1cccc2ccccc12  NCI/ADR-RES ovarian                GI50   3.27 µM
4  CN1CCN(CCCNC(=O)c2c3c(n4ccccc24)C(=O)c2ncccc2C3=O)CC1  NCI/ADR-RES ovarian                GI50     12 µM

Note: attention shifts to another entry.
Entry under review: `Cc1ccc(/C=N/NC(=O)c2ccccc2Oc2ccccc2)o1` . Reported GI50? 25.9 µM
